experiment_summary: Critical micelle concentration by fluorescence dye diphenylhexatriene (DPH)
Format: physicochemical
run_parameters: DPH fluorescence
quantity_name: CMC (µM)
Express your answer in µM, writing the number without its unit.

Query :: # lookup: CMC of CCCCCCCCCCCCO[C@@H]1O[C@H](CO)[C@@H](O[C@H]2O[C@H](CO)[C@@H](O)[C@H](O)[C@H]2O)[C@H](O)[C@H]1O [DDM, n-dodecyl-β-D-maltopyranoside, reference compound]
Result :: 170
